target: human ether-à-go-go-related gene (hERG) potassium channel (human); test: primary screen, population patch clamp on CHO cells stably expressing hERG; higher = less effect of the substance;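 further: peak tail current of the secondary pulse compared with the same well before compound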
Sequence (Q12809 whole entry, looked up): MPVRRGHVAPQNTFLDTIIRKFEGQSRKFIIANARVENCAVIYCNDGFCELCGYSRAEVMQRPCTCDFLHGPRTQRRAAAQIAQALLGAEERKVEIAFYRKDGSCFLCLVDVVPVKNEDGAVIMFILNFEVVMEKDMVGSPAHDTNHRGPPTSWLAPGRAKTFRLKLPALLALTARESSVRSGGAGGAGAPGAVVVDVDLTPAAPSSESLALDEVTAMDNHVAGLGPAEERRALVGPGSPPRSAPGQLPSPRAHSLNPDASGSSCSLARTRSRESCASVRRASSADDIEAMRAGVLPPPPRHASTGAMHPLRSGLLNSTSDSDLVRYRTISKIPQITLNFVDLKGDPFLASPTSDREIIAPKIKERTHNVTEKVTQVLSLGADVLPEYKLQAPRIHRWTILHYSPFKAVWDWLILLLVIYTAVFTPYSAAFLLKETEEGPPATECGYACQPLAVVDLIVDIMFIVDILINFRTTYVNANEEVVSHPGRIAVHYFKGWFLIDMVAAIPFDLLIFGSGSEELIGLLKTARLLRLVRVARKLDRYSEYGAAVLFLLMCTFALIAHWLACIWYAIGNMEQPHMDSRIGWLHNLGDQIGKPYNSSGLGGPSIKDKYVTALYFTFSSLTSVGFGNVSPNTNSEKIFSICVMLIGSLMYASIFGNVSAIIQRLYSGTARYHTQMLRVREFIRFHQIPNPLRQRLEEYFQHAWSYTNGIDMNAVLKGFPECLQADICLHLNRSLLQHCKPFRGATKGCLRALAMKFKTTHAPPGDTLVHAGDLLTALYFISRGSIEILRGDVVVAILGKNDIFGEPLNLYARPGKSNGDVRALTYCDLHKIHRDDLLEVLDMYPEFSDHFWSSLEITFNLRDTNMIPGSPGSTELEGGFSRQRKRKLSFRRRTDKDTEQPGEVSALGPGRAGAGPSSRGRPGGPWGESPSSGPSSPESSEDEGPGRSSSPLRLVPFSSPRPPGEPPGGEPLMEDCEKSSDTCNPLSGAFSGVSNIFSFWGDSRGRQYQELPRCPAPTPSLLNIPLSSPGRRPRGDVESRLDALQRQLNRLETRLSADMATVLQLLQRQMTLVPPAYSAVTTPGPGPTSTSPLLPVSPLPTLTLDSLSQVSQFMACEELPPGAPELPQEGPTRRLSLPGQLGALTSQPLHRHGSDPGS
The whole screen tested about 310,000 compounds, of which about 14,000 (4.5%) showed an effect of 50% or more. Effects have a minus sign here. The list comes from a sample in which strong results are over-represented; it also holds close analogues and randomly drawn compounds.
readout: hERG current change (%, negative = inhibition) at 10uM (%)
Response body: numeric value in %, unit text excluded.

Below, each entry is followed by its recorded hERG current change (%, negative = inhibition) at 10uM result.
O=C(OCC1OC(n2ccc(=O)[nH]c2=O)C(O)C1OC(=O)c1ccccc1)c1ccccc1 (stereo not shown) | -67.9
COc1ccc(CN2CCN(CCc3ccccc3)C(CCO)C2)c(Cl)c1OC (stereo not shown) | -60.1
COc1cc2c(cc1NC(=O)CSc1nc3ccc(C)cc3[nH]1)oc1ccccc12 | 7.65
CC(C)c1ccc(OCc2nc(-c3ccccn3)no2)c(Br)c1 | -10.6
Nn1c(COc2ccccc2F)nnc1SCC(=O)NC1CC1 | 0.387
Cc1c(NC(=O)c2cccc(F)c2)c(=O)n(-c2ccccc2)n1C | 20.5

Memo: CC(C)(C)c1ccccc1OCC(=O)NCCC(=O)O , reported hERG current change (%, negative = inhibition) at 10uM: -7.3

Memo: COCCCNC(=O)c1cn(-c2cccc(OC)c2)c(=O)c2ccccc12 , reported hERG current change (%, negative = inhibition) at 10uM: 18.1

Memo: O=C(c1ccco1)N1CCN(Cc2nc(-c3cccs3)no2)CC1 , reported hERG current change (%, negative = inhibition) at 10uM: -38.1

Memo: COc1ccc(CN2CCN(CCCc3ccccc3)C(CCO)C2)c(OC)c1 (stereo not shown) , reported hERG current change (%, negative = inhibition) at 10uM: -72.9
